# Assay Details: soluble on expression in E. coli; label from the status in PepcDB or PDB records

{"Seq Text": "MAESVEKLEDGIVRSAEQVSSQIRAAKDAIASVIFGQDRVIENTLVTILSGGHALLIGVPGLAKTKLVETLGVTLGLDAKRIQFTPDLMPSDILGAEVLDESTAGKRSFRFIAGPVFAQLLMADEINRASPRTQSALLQAMQEQHITVAGARHDLPKPFHVLATQNPLEQEGTYPLPEAQLDRFLMEIDVDYPDRDAERRILFETTGAEETLAKGSMTADALITAQRLIRRLPVGDSVVEAILSLVRSARPGPDSGETGKFIAWGPGPRASQSLMLAVRARALIDGRLAPSVDDVLDLAEPILKHRMALTFQARAEGRTIPDVIRQLKTRIGLEHHHHHH", "soluble on expression in E. coli": "soluble"}
{"Seq Text": "MMRRTLENRNAQTKQLQTAVSNVEKHFGELCQIFAAYVRKTARLRDKADLLVNEINAYAATETPHLKLGLMNFADEFAKLQDYRQAEVERLEAKVVEPLKTYGTIVKMKRDDLKATLTARNREAKQLTQLERTRQRNPSDRHVISQAETELQRAAMDASRTSRHLEETINNFERQKMKDIKTIFSEFITIEMLFHGKALEVYTAAYQNIQNIDEDEDLEVFRNSLYAPDYSSRLDIVRANSKSPLQRSLSAKCVSGTGQEAGWAATCQTLI", "soluble on expression in E. coli": "soluble"}
